# Tested on: SNB-75
# Assay Details: NCI tumour cell line growth inhibition, 48 h
Calls of active or inactive are those of the source. Cut-off read from the data, not from the text of the source: active = GI50 up to about 1.1 µM and inactive = higher.
This section presents molecules with their documented GI50 values.

Field: example entries. Status: answers known.
[
  {
    "Molecule": "C=CCC1(Sc2ccccn2)Sc2ccc3ccccc3c2-c2c(ccc3ccccc23)S1",
    "GI50": "55.7 µM (inactive)"
  },
  {
    "Molecule": "CCOC1C=CC(=O)C(CO)O1 (centres undefined)",
    "GI50": "15.3 µM (inactive)"
  }
]

[in] Specify reported GI50 for the molecule shown: OCC(O)C(O)C(C=NNc1ncnc2ccc(Br)cc12)=NNc1ncnc2ccc(Br)cc12 (centres undefined)
[out] 5.82 µM (inactive)

[in] Given the molecule COc1cc(C2CC(C)(Nc3ccccc3)Oc3cc4c(cc32)OCO4)cc(OC)c1OC (centres undefined) , write its reported GI50.
[out] 3.49 µM (inactive)

Each recorded value in this set is attributed to ChEMBL document CHEMBL1201862.
